B1: NEK8 (parent)
chain: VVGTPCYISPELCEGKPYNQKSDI

variants of: B1; test: protein stability index of a GFP-peptide fusion (GPS, HEK-293T) (PSI 1-6); higher = more stable; details: c terminus: a fixed tail appended;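 further: lentivirally expressed fusions sorted by FACS into six bins by GFP to DsRed ratio, PSI derived from sequencing read proportions per bin multiplied by bin number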
Assign class by protein stability index: not lower than 3 means true; lower than 3 means false.

Solved cases (2 shown):
{"Variant Description": "T4F", "Class Name": "false"}
{"Variant Description": "P5N", "Class Name": "true"}

stdin: Has Q20N a recorded protein stability index greater than or equal to 3?
stdout: true

stdin: Has E14P a recorded protein stability index greater than or equal to 3?
stdout: false

stdin: Has D23Y a recorded protein stability index greater than or equal to 3?
stdout: false
